- tested target: UniProt Q7CR15
- protocol details: Fluorescence-based thermal shift
- Assay type: binding
- assay setup: rank among hits of the SPC2-ECH008 library screen
reported property: FTS rank (Table S1)
Answer field: number only, no words.

Sample records with FTS rank (Table S1):
C[C@]12CC[C@@H]3c4ccc(O)cc4C[C@@H](CCCCCCCCC[S+]([O-])CCCC(F)(F)C(F)(F)F)[C@H]3[C@@H]1CC[C@@H]2O (stereo partly shown) [Fulvestrant, fulvestrant] = 1
CC(C)c1nc(CN(C)C(=O)N[C@H](C(=O)N[C@@H](Cc2ccccc2)C[C@H](O)[C@H](Cc2ccccc2)NC(=O)OCc2cncs2)C(C)C)cs1 [Ritonavir, ritonavir] = 4
C[C@]12CC[C@H](O)CC1=CC[C@@H]1[C@@H]2CC[C@]2(C)C(=O)CC[C@@H]12 [Prasterone, prasterone] = 6
COC1=C(OC)C(=O)C(CCCCCCCCCCO)=C(C)C1=O [Idebenone, idebenone] = 2
C[C@]12CC[C@@H]3c4ccc(OC(=O)N(CCCl)CCCl)cc4CC[C@H]3[C@@H]1CC[C@@H]2O [Estramustine, estramustine] = 5

Would you kindly share the measured FTS rank (Table S1) for Cc1cc(N)c2ccccc2[n+]1CCCCCCCCCC[n+]1c(C)cc(N)c2ccccc21 [Dequalinium chloride, dequalinium] ?
14

Bench note: what FTS rank (Table S1) did CSc1nc2cc(Cl)c(Oc3cccc(Cl)c3Cl)cc2[nH]1 [Triclabendazole, triclabendazole] show?
3
